biological target: human progesterone receptor-A [PRA] isoform (Homo sapiens); construct: host or cells: insect SF21 cells (baculovirus); test: Radioligand binding with human progesterone receptor cytosol ([3H]-progesterone competition); conditions: PRA cytosol expressed in insect SF21 cells, [3H]Prog ~0.8 nM, 4° C. overnight; Ki by Cheng-Prusoff, KL ~4.5 nM; read-out: Ki (nM) PR
Sequence (P06401 165-933): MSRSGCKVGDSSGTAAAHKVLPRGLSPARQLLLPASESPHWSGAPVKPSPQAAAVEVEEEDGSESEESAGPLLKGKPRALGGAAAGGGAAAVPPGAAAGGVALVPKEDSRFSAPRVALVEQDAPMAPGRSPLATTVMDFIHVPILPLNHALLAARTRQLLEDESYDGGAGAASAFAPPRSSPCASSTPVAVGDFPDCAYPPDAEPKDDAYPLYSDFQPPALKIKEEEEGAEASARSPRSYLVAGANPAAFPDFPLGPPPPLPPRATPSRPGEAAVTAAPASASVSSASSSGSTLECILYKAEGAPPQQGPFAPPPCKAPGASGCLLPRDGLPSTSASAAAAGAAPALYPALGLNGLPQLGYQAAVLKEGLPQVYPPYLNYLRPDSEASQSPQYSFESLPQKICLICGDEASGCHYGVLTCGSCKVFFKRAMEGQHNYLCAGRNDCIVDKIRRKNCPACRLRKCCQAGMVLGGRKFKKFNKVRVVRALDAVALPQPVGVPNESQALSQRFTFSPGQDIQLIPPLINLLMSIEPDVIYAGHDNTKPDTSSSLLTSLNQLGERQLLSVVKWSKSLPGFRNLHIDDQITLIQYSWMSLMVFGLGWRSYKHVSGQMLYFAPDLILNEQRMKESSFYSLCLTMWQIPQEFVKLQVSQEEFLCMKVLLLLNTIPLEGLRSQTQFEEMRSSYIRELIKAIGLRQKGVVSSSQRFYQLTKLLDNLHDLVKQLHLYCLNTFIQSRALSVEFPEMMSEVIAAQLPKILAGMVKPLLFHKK
Readout type: Ki (nM)

Example compounds with recorded Ki:
| Compound | Ki (nM) |
| --- | --- |
| C=C(C)CC1Oc2cccc(OC)c2-c2ccc3c(c21)C(C)=CC(C)(C)N3 (stereo not drawn) | 7430 |
| COc1cccc2c1-c1ccc3c(c1C(C1C=CCC1)O2)C(C)=CC(C)(C)N3 (racemic) | 2700 |
| C=CCC1Oc2ccc(C(=O)OC)c(OC)c2-c2ccc3c(c21)C(C)=CC(C)(C)N3 (stereo not drawn) | 199 |

(P) COc1cccc2c1-c1ccc3c(c1C(C)O2)C(C)=CC(C)(C)N3 (stereo not drawn)
(Q) COc1cccc2c1-c1ccc3c(c1[C@H]([C@H]1C=CCC1)O2)C(C)=CC(C)(C)N3
(R) CC1=CC(C)(C)Nc2ccc3c(c21)/C(=C/c1cccc(F)c1)Oc1ccc(O)c(Cl)c1-3
(S) COc1c(O)ccc2c1-c1ccc3c(c1C(c1cccc(C(F)(F)F)c1)O2)C(C)=CC(C)(C)N3 (stereo not drawn)
Kindly order the items shown according to Ki, from the highest value down. Return the labels ranked in the requested order, please.
P, Q, S, R

Values from patent US6506766B1
